Tested on: VDR homodimer (NR concentration 270 nM)
test method notes: PBM binding z-score (relative to random genomic background probes); higher = stronger binding; sequences stand for … in GC…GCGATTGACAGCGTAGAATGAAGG
PBM binding z-score by entry:
Simply state the number, no unit and no words.

Known PBM binding z-score results, listed for orientation:
[[record]]
sequence_entry = "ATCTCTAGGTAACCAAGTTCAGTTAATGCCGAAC"
measurement = 3.19

[[record]]
sequence_entry = "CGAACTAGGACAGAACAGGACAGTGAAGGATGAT"
measurement = -0.157

[[record]]
sequence_entry = "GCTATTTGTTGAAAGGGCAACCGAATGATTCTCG"
measurement = 0.657


Query: Return the recorded PBM binding z-score value; entry: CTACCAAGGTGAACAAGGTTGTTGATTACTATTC
Result: 0.267

Query: Return the recorded PBM binding z-score value; entry: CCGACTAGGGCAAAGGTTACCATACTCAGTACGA
Result: 0.229

Query: Return the recorded PBM binding z-score value; entry: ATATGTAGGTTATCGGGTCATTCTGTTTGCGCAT
Result: 3.53

Query: Return the recorded PBM binding z-score value; entry: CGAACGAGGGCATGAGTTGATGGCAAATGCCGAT
Result: 1.31

====

Test system: RARb homodimer (NR concentration 270 nM)
test method notes: PBM binding z-score (relative to random genomic background probes); higher = stronger binding; sequences stand for … in GC…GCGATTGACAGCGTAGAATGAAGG
PBM binding z-score below 0.8 gives false (0); PBM binding z-score at or above it gives true (1).

# example entries with known answers
[[record]]
sequence_entry = "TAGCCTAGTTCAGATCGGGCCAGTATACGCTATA"
class_label = "false (0)"

[[record]]
sequence_entry = "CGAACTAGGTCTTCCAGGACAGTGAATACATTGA"
class_label = "false (0)"

[[record]]
sequence_entry = "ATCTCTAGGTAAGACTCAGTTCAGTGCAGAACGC"
class_label = "false (0)"

[[record]]
sequence_entry = "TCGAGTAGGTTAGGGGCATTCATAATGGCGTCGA"
class_label = "true (1)"

[[record]]
sequence_entry = "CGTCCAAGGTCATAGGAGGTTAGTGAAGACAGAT"
class_label = "true (1)"

[[record]]
sequence_entry = "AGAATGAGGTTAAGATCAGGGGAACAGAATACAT"
class_label = "true (1)"

[[record]]
sequence_entry = "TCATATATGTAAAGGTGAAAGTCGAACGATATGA"
class_label = "true (1)"

[[record]]
sequence_entry = "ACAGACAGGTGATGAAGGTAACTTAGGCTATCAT"
class_label = "false (0)"

[[record]]
sequence_entry = "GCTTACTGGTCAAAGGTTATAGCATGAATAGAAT"
class_label = "true (1)"

[[record]]
sequence_entry = "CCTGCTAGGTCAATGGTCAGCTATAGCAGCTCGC"
class_label = "true (1)"


Query: Determine whether measured PBM binding z-score meets or exceeds 0.8 for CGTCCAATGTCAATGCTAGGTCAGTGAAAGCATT
Result: true (1)

Query: Determine whether measured PBM binding z-score meets or exceeds 0.8 for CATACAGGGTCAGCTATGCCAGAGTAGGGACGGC
Result: true (1)

====

Test system: PPARg:RXRa IVT, anti-PPARg (NR concentration 270 nM, RXRa partner concentration 90 nM)
test method notes: PBM binding z-score (relative to random genomic background probes); higher = stronger binding; sequences stand for … in GC…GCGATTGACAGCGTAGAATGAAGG
PBM binding z-score by entry:

Known PBM binding z-score results, listed for orientation:
[[record]]
sequence_entry = "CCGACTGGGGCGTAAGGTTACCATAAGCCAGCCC"
measurement = 0.275

[[record]]
sequence_entry = "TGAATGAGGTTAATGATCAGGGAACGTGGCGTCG"
measurement = 1.98

[[record]]
sequence_entry = "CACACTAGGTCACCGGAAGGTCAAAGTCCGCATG"
measurement = 8.19

[[record]]
sequence_entry = "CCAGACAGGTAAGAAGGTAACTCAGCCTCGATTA"
measurement = -0.122

[[record]]
sequence_entry = "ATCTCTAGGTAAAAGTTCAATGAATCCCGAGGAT"
measurement = 4.28


Lab note: next sequence to report on.
Query: Return the recorded PBM binding z-score value; entry: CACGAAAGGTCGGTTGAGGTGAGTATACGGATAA
Result: 1.19
